Every entry's value here was drawn from paper PMC7504435.

Molecular target: BPTF bromodomain (Homo sapiens, UniProt Q12830)
Assay: 1H CPMG NMR deconvolution of hit mixtures, BPTF
Assay type: binding
Design: deconvolution of the hit mixtures using the non-fluorine-labeled bromodomains; made in house; host or cells: E. coli BL21(DE3)
Settings: 10 µM protein, 100 µM ligand
Mark condition met only for BPTF CPMG % decrease values smaller than 50%; exact matches and larger values are condition not met.

Sample answers from the record:
CCCCC(=O)Nc1sc(C)c(C)c1C(N)=O
condition not met
Cc1nnc(SCC(=O)N2CCCCCC2)n(N)c1=O
condition met
OCC1CCCN1c1cccc(C(F)(F)F)n1 (stereo not shown)
condition met

*Q* Hi there! Is BPTF CPMG % decrease for `CC(C)C(=O)N1CCN(c2cnnc(N(C)C)c2)CC1` below 50%, do you know?
*A* condition not met

*Q* Quick check: does `Cc1cccc(NC(=O)C2CCN(S(C)(=O)=O)CC2)c1` have BPTF CPMG % decrease under 50%?
*A* condition met

*Q* Answer whether the compound `Cc1cc(-c2nnc(NC(=O)C3CC3)o2)nn1C` has BPTF CPMG % decrease strictly less than 50%
*A* condition not met

*Q* Strictly below 50% in BPTF CPMG % decrease? CCOC(=O)c1sc(NC(=O)C2CCOC2)cc1C (stereo not shown)
*A* condition not met

*Q* Please check: BPTF CPMG % decrease for COC(C)(CNS(C)(=O)=O)c1cccc(Cl)c1 (stereo not shown) , strictly under 50% or not?
*A* condition met

*Q* Hello, I'm reviewing records and need to know if BPTF CPMG % decrease of `CC(C)(C)NC(=O)c1cnc2n(c1=O)CCS2` is below 50%. Could you check?
*A* condition not met

*Q* Lab log: compare recorded BPTF CPMG % decrease with 50%; is it strictly lower for CC(=O)NCC1COCCN1.CC(=O)NCC1COCCN1.Cl.Cl.Cl (stereo not shown) ?
*A* condition met

*Q* Confirm or reject: BPTF CPMG % decrease of CC(C)(C)OC(=O)N1CCCC(C(=O)O)C1 (stereo not shown) lies strictly below 50%
*A* condition met

*Q* Problem: For the compound CC(C)Nc1nc2c(c(=O)[nH]c(=O)n2C)n1CC(O)CO (stereo not shown) , is BPTF CPMG % decrease under 50%?
*A* condition met

*Q* Regarding `CCCCSc1nnc(-c2cn(C)nc2OC)n1CC` , kindly confirm whether its BPTF CPMG % decrease is beneath 50%.
*A* condition not met

*Q* Consider Cc1ccc(C)c(S(=O)(=O)N2CCCC2C(=O)O)c1 (stereo not shown) . Does its BPTF CPMG % decrease lie strictly below 50%?
*A* condition met

*Q* Does the reported BPTF CPMG % decrease of the following compound sit strictly below 50%? CCC(C)Sc1nnc(-c2cn(C)nc2OC)n1CC (stereo not shown)
*A* condition not met

*Q* Bench note: check whether O=C(C1CC1)N1CCCC(Cc2nc(C3CC3)no2)C1 (stereo not shown) shows BPTF CPMG % decrease below 50%
*A* condition not met

*Q* In the record for `Cc1nnc(C2CCN(C(=O)c3ccsc3)CC2)s1` , is BPTF CPMG % decrease less than 50%?
*A* condition not met

###

Target: BPTF bromodomain (Homo sapiens, UniProt Q12830)
Assay: 1H CPMG NMR deconvolution of hit mixtures, BPTF
Type: binding
Parameters: deconvolution of the hit mixtures using the non-fluorine-labeled bromodomains; made in house; host or cells: E. coli BL21(DE3)
Details: 10 µM protein, 100 µM ligand
Label key: Fulfilled means BPTF CPMG % decrease under 70%; Not fulfilled means BPTF CPMG % decrease of 70% or more.

Some solved cases for reference:
CS(=O)(=O)N1CCC2(CC1)OC(=O)c1ccccc12
Fulfilled
CCNc1cc(NCCNC(=O)CC(C)C)nc(C)n1
Fulfilled
Cc1csc(NC(=O)C2CCNCC2)n1.Cl
Fulfilled
Cc1ccc2c(C#N)c(N)sc2c1
Not fulfilled
Nc1ccc2c(c1)N(C(=O)C1CC1)CCC2
Not fulfilled

*Q* Regarding `CCCC(=O)Nc1cc2c3c(c1)CC(=O)N3CCC2` , kindly confirm whether its BPTF CPMG % decrease is beneath 70%.
*A* Fulfilled

*Q* For CC(C)(C)C(O)CCNC(=O)COc1ccc(F)cc1 (centres unmarked) , is the recorded BPTF CPMG % decrease below the cut-off of 70%?
*A* Fulfilled
